Values from paper PMC10653080

# assay-overview: PP-LFER solute descriptor determination from GC retention and partition coefficient data
# Assay type: physicochemical
# cond: final adjusted value; shared within a PFAS group
assay-metric: Solute descriptor S (dipolarity/polarizability parameter)

Before answering, review these 5 worked examples.
compound	reported-result
CNS(=O)(=O)C(F)(F)C(F)(F)C(F)(F)C(F)(F)F [MeFBSA, N-Methylperfluorobutanesulfonamide]	0.88
NS(=O)(=O)C(F)(F)C(F)(F)C(F)(F)C(F)(F)C(F)(F)C(F)(F)C(F)(F)C(F)(F)F [PFOSA, Perfluorooctanesulfonamide]	0.96
C=CC(=O)OCCC(F)(F)C(F)(F)C(F)(F)C(F)(F)C(F)(F)C(F)(F)C(F)(F)C(F)(F)F [8:2 FTAC, 1H,1H,2H,2H-Perfluorodecyl acrylate]	0.54
C=CC(F)(F)C(F)(F)C(F)(F)C(F)(F)C(F)(F)C(F)(F)C(F)(F)C(F)(F)C(F)(F)C(F)(F)F	0.11
C=CCOC(F)(C(F)(F)F)C(F)(F)F	0.15

Fill in the blank: the reported Solute descriptor S (dipolarity/polarizability parameter) of FC(F)(F)C(F)(F)C(F)(F)C(F)(F)C(F)(F)C(F)(F)C(F)(F)C(F)(F)CCI [8:2 FTI, 1H,1H,2H,2H-Perfluorodecyl iodide] is ____.
0.32

For the compound shown here, FC(F)(F)C(F)(I)OC(F)(F)C(F)(F)C(F)(F)F (stereo not shown) [FE-E1-I] , give the reported Solute descriptor S (dipolarity/polarizability parameter).
0.06
